# System: Aβ42
# ASSAY OVERVIEW: In vitro cellular assay (Aβ42): quantification of Aβ peptide in culture of neurons from rat fetus brain (ELISA)
# Format: cell-based
# PARTICULARS: Primary cortical neuron, 72 h, rat primary cortical neurons (embryonic day 18 Wistar), 3 days after addition of compound, read-out: Cell IC50
# Procedure: In vitro Cellular Assay (Aβ42): Quantification of AβPeptide in Culture of Neurons from Rat Fetus Brain (1) Rat Primary Neuronal Culture Primary neuronal cultures were prepared from the cerebral cortex of embryonic day 18 Wistar rats (Charles River, UK). Specifically, the embryos were aseptically removed from pregnant rats under ether anesthesia. The brain was isolated from the embryo and immersed in HBSS (Sigma Aldrich #H9269) containing 10 mM HEPES (Gibco #15630-056). […]
Reported values of IC50 for individual entries

[
  {
    "MOLECULE": "C[C@H]1OC[C@]2(c3cc(-c4ccccc4F)ccc3F)N=C(N)SC[C@H]12 [Example 6]",
    "COMPARATIVE SIGN": "=",
    "IC50 (nM)": 244
  },
  {
    "MOLECULE": "C[C@H]1OC[C@]2(c3cc(-c4cncc(C(F)(F)F)c4)ccc3F)N=C(N)SC[C@H]12 [Example 14]",
    "COMPARATIVE SIGN": "=",
    "IC50 (nM)": 136
  },
  {
    "MOLECULE": "C[C@H]1OC[C@]2(c3cc(-c4cncc(OC(F)F)c4)ccc3F)N=C(N)SC[C@H]12 [Example 26]",
    "COMPARATIVE SIGN": "=",
    "IC50 (nM)": 64
  },
  {
    "MOLECULE": "C[C@H]1OC[C@]2(c3cc(-c4cncc(OC5CC5)c4)ccc3F)N=C(N)SC[C@H]12 [Example 21]",
    "COMPARATIVE SIGN": "=",
    "IC50 (nM)": 127
  },
  {
    "MOLECULE": "NC1=N[C@@]2(c3cc(-c4cncnc4)c(F)cc3F)CO[C@H](CF)[C@H]2CS1 [Example 27]",
    "COMPARATIVE SIGN": "=",
    "IC50 (nM)": 59
  },
  {
    "MOLECULE": "C[C@H]1OC[C@]2(c3cc(-c4cccc(=O)[nH]4)ccc3F)N=C(N)SC[C@H]12 [Example 25]",
    "COMPARATIVE SIGN": "=",
    "IC50 (nM)": 342
  },
  {
    "MOLECULE": "C[C@H]1OC[C@]2(c3cc(-c4cccnn4)ccc3F)N=C(N)SC[C@H]12 [Example 23]",
    "COMPARATIVE SIGN": "=",
    "IC50 (nM)": 572
  },
  {
    "MOLECULE": "C[C@H]1OC[C@]2(c3cc(-c4cncc(F)c4)ccc3F)N=C(N)SC[C@H]12 [Example 9]",
    "COMPARATIVE SIGN": "=",
    "IC50 (nM)": 60
  },
  {
    "MOLECULE": "Cc1cncc(-c2ccc(F)c([C@]34CO[C@H](C)[C@H]3CSC(N)=N4)c2)c1 [Example 15]",
    "COMPARATIVE SIGN": "=",
    "IC50 (nM)": 101
  },
  {
    "MOLECULE": "C[C@H]1OC[C@]2(c3cc(-c4cc(F)ccc4F)ccc3F)N=C(N)SC[C@H]12 [Example 12]",
    "COMPARATIVE SIGN": "=",
    "IC50 (nM)": 114
  },
  {
    "MOLECULE": "NC1=N[C@@]2(c3cc(-c4cccnc4F)c(F)cc3F)CO[C@H](CF)[C@H]2CS1 [Example 28]",
    "COMPARATIVE SIGN": "=",
    "IC50 (nM)": 46
  },
  {
    "MOLECULE": "C[C@H]1OC[C@]2(c3cc(-c4cncc(C#N)c4)ccc3F)N=C(N)SC[C@H]12 [Example 13]",
    "COMPARATIVE SIGN": "=",
    "IC50 (nM)": 62
  },
  {
    "MOLECULE": "C[C@H]1OC[C@]2(c3cc(-c4ncc[nH]4)ccc3F)N=C(N)SC[C@H]12 [Example 2]",
    "COMPARATIVE SIGN": "=",
    "IC50 (nM)": 749
  },
  {
    "MOLECULE": "C[C@H]1OC[C@]2(c3cc(-c4ccn[nH]4)ccc3F)N=C(N)SC[C@H]12 [Example 17]",
    "COMPARATIVE SIGN": "=",
    "IC50 (nM)": 977
  },
  {
    "MOLECULE": "Cc1cnc(F)c(-c2ccc(F)c([C@]34CO[C@H](C)[C@H]3CSC(N)=N4)c2)c1 [Example 16]",
    "COMPARATIVE SIGN": "=",
    "IC50 (nM)": 58
  },
  {
    "MOLECULE": "Cc1ncccc1-c1ccc(F)c([C@]23CO[C@H](C)[C@H]2CSC(N)=N3)c1 [Example 18]",
    "COMPARATIVE SIGN": "=",
    "IC50 (nM)": 217
  },
  {
    "MOLECULE": "C[C@H]1OC[C@]2(c3cc(-c4cnc(-c5cnccn5)[nH]4)ccc3F)N=C(N)SC[C@H]12 [Example 3]",
    "COMPARATIVE SIGN": "=",
    "IC50 (nM)": 69
  },
  {
    "MOLECULE": "C[C@H]1OC[C@]2(c3cc(-c4cccnc4F)ccc3F)N=C(N)SC[C@H]12 [Example 7]",
    "COMPARATIVE SIGN": "=",
    "IC50 (nM)": 62
  },
  {
    "MOLECULE": "NC1=N[C@@]2(c3cc(-c4ccc(F)nc4)c(F)cc3F)CO[C@H](CF)[C@H]2CS1 [Example 30]",
    "COMPARATIVE SIGN": "=",
    "IC50 (nM)": 223
  },
  {
    "MOLECULE": "COc1cncc(-c2cc([C@]34CO[C@H](CF)[C@H]3CSC(N)=N4)c(F)cc2F)c1 [Example 29]",
    "COMPARATIVE SIGN": "=",
    "IC50 (nM)": 15
  },
  {
    "MOLECULE": "C[C@H]1OC[C@]2(c3cc(-c4cncnc4)c(F)cc3F)N=C(N)SC[C@H]12 (relative stereo) [Example 31]",
    "COMPARATIVE SIGN": "=",
    "IC50 (nM)": 20
  },
  {
    "MOLECULE": "C[C@H]1OC[C@]2(c3cc(-c4ccccc4)ccc3F)N=C(N)SC[C@H]12 [Example 5]",
    "COMPARATIVE SIGN": "=",
    "IC50 (nM)": 450
  },
  {
    "MOLECULE": "COc1cccc(-c2ccc(F)c([C@]34CO[C@H](C)[C@H]3CSC(N)=N4)c2)n1 [Example 24]",
    "COMPARATIVE SIGN": ">",
    "IC50 (nM)": 1000
  },
  {
    "MOLECULE": "COc1ccc(-c2ccc(F)c([C@]34CO[C@H](C)[C@H]3CSC(N)=N4)c2)cn1 [Example 11]",
    "COMPARATIVE SIGN": "=",
    "IC50 (nM)": 839
  },
  {
    "MOLECULE": "C[C@H]1OC[C@]2(c3cc(-c4ccc(F)nc4)ccc3F)N=C(N)SC[C@H]12 [Example 10]",
    "COMPARATIVE SIGN": "=",
    "IC50 (nM)": 94
  },
  {
    "MOLECULE": "C[C@H]1OC[C@]2(c3cc(-c4ccnn4C)ccc3F)N=C(N)SC[C@H]12 [Example 20]",
    "COMPARATIVE SIGN": ">",
    "IC50 (nM)": 1000
  },
  {
    "MOLECULE": "C[C@H]1OC[C@]2(c3cc(-c4cncnc4)ccc3F)N=C(N)SC[C@H]12 [Example 1]",
    "COMPARATIVE SIGN": "=",
    "IC50 (nM)": 65
  },
  {
    "MOLECULE": "COc1cncc(-c2ccc(F)c([C@]34CO[C@H](C)[C@H]3CSC(N)=N4)c2)c1 [Example 8]",
    "COMPARATIVE SIGN": "=",
    "IC50 (nM)": 23
  },
  {
    "MOLECULE": "CC#Cc1cncc(-c2ccc(F)c([C@]34CO[C@H](C)[C@H]3CSC(N)=N4)c2)c1 [Example 19]",
    "COMPARATIVE SIGN": "=",
    "IC50 (nM)": 17
  },
  {
    "MOLECULE": "C[C@H]1OC[C@]2(c3cc(-c4cnccn4)ccc3F)N=C(N)SC[C@H]12 [Example 22]",
    "COMPARATIVE SIGN": "=",
    "IC50 (nM)": 55
  },
  {
    "MOLECULE": "C[C@H]1OC[C@]2(c3cc(-c4cccnc4)ccc3F)N=C(N)SC[C@H]12 [Example 4]",
    "COMPARATIVE SIGN": "=",
    "IC50 (nM)": 106
  }
]
